This collection of values is drawn from patent US6288042.

Experimental Target: FIV integrase (Feline immunodeficiency virus, UniProt P16088 P16088:844-1124)
Experimental Details: inhibition; 3'-processing
Test Parameters: G4
Endpoint: pIC50
Numbers only, as −log10 of the molar value.

Measured pIC50, GTGGTGGGTGGGTGGGT (structured_DNA, PS at first and last linkage (pPT)) [T30177 (AR177)] : 6.76
